For reference, AC50 measured on Cytochrome P450 1A2 (Homo sapiens):

Here are 3 compounds together with their reported answers.
O=C(O)c1[nH]c2c([N+](=O)[O-])cc([N+](=O)[O-])cc2c1C(=O)O; 0.126 µM (inconclusive)
CCC(Sc1nc2cc3c(cc2c(=O)n1Cc1ccco1)OCO3)C(=O)Nc1cccc(OC)c1 (stereo unspecified); 4.47 µM (inconclusive)
COC(=O)C1(Cc2ccccc2)C=C2C(=C(C)C(=O)C2C)CN1 (stereo unspecified); 10 µM (inconclusive)

### Prompt # get_value(readout= AC50, system= Cytochrome P450 1A2 (Homo sapiens)) for `NS(=O)(=O)c1ccc(/N=N\c2ncccc2O)cc1`
### Response 2 µM (inconclusive)

### Prompt # get_value(readout= AC50, system= Cytochrome P450 1A2 (Homo sapiens)) for `C[C@@H](C(=O)Nc1ccc2ccccc2c1)[C@H]1C[C@]1(C)[C@H](NS(=O)(=O)c1ccc(-c2ccccc2)cc1)c1ccccc1`
### Response 15.8 µM (inconclusive)

### Prompt # get_value(readout= AC50, system= Cytochrome P450 1A2 (Homo sapiens)) for CC(C)Oc1ccc(CNC(=O)CC(c2ccccc2)c2cc(Cl)ccc2O)cc1 (stereo unspecified)
### Response 28.2 µM (inconclusive)

### Prompt # get_value(readout= AC50, system= Cytochrome P450 1A2 (Homo sapiens)) for `Cc1ccc2nc(SCc3nnc(-c4ccccc4[N+](=O)[O-])o3)c(C#N)cc2c1`
### Response 1.58 µM (inconclusive)

### Prompt # get_value(readout= AC50, system= Cytochrome P450 1A2 (Homo sapiens)) for O=C(CSC1CC(=O)N(CC(c2ccccc2)c2ccccc2)C1=O)Nc1ccc(Cl)cc1 (stereo unspecified)
### Response 35.5 µM (inconclusive)

### Prompt # get_value(readout= AC50, system= Cytochrome P450 1A2 (Homo sapiens)) for `COc1ccc(/C=N\NC(=O)O)cc1`
### Response 0.501 µM (inconclusive)

### Prompt # get_value(readout= AC50, system= Cytochrome P450 1A2 (Homo sapiens)) for `COc1ccc(CCNC(=O)COc2ccc(S(=O)(=O)NC3CCCCC3)cc2Cl)cc1`
### Response 25.1 µM (inconclusive)

### Prompt # get_value(readout= AC50, system= Cytochrome P450 1A2 (Homo sapiens)) for `Cc1ncc(C/N=C\c2ccc(Cl)cc2)c(N)n1`;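 further: PubChem cytochrome P450 panel assay, CYP1A2 panel member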
### Response 5.01 µM (inconclusive)
